Measured In vitro activity (relative activity to SEQ ID NO: 1, %), cAMP assay, from EC50 by item
Molecular target: human glucagon receptor (human, UniProt P47871 26-477)
Sequence (P47871 26-477): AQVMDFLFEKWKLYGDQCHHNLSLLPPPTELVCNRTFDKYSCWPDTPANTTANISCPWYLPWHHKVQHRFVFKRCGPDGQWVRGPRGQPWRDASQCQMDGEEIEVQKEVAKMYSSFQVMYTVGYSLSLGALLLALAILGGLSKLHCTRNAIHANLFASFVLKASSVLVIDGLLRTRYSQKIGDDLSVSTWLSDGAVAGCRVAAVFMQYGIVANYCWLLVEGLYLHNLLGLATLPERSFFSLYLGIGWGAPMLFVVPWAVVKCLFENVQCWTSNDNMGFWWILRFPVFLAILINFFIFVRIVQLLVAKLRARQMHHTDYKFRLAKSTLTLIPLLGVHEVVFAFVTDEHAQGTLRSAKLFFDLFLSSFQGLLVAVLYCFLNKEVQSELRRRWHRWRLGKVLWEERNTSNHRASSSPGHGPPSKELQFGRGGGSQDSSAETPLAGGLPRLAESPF
Test: cell-based or functional assay
Positions of bridges follow the written chain, without caps; N, C: chain ends. Non-standard residues stand in square brackets, D forms with d. No end group written: not given here. Aib = CC(C)(N)C(=O)O
measurementName: In vitro activity (relative activity to SEQ ID NO: 1, %), cAMP assay, from EC50

> print(dat)
                                     binder  assayvalue
1  SQGTFTSDYSKYLDECRAKEFVQWLMNT (lactam 15-19) [glucagon derivative of SEQ ID NO: 32]         0.7
2  HSQGTFTSDYSKYLDSCEAQDFVQWLMNT [glucagon derivative of SEQ ID NO: 5]         0.3
3  Y[Aib]QGTFTSDCSKYLDSRRAQDFVQWLMNT [glucagon derivative of SEQ ID NO: 43]         1.6
